SYSTEM: Thrombin (Homo sapiens)
ASSAY_NOTES: Thrombin inhibition (Ki)
Assay type: biochemical
MEASUREMENT_PARAMETERS: as the N-α-DNS, —COO-Pip derivatives; read-out: Thrombin K12
Source text: Thrombin is a major control point of the blood coagulation cascade, and inhibitors are of interest to combat thrombotic diseases.
TEST_READOUT: Ki
Write the quantity with the unit trailing the number.

**Q:** State, in one line, measured Ki of N=C(N)NCCC[C@H](N)C(=O)O [Arg, arginine, reference compound]
**A:** 83 nM

* * *

SYSTEM: Thrombin (Homo sapiens)
ASSAY_NOTES: Thrombin inhibition (Ki)
Format: biochemical
TEST_READOUT: Ki (nM)
Please give a number only; it is taken to be in nM.

**Q:** State, in one line, measured Ki of CCNC(=N)NCCC[C@H](N)C(=O)O [Compound 31, N(γ)ethyl-Arg]
**A:** 190
